Molecular target: Cytochrome P450 2C19 (Homo sapiens) (UniProt P33261)
Sequence (P33261 whole entry, looked up): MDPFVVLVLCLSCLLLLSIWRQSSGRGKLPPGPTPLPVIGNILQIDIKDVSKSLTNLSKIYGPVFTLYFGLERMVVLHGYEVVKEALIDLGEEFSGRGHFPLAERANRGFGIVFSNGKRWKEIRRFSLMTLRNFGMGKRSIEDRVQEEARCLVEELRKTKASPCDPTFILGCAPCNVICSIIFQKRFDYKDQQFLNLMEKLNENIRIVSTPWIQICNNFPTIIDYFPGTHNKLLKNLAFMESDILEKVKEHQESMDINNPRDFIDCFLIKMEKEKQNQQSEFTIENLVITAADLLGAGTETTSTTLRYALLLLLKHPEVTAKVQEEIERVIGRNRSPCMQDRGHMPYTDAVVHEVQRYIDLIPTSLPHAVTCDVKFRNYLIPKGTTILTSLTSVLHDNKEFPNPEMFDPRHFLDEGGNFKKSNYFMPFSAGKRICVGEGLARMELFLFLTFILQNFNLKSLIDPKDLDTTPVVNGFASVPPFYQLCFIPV
Assay: blockers of cytochrome P450 2C19 activity – biochemical, luminescence, ADME assay, primary screen (AID 778)
Conditions: CYP2C19 Supersomes, luciferin-H EGE luminescence, 30 min; at 5 µM; stronger effect = higher value
Among all 96,000 compounds or so, about 20,000 (21%) were called active. Not all results are given here.
Label met when inhibition >= 7%; otherwise not met.

Example results:
INSERT INTO results (molecule, label_class) VALUES
  ('COC(=O)c1ccc(CSc2nncn2C)cc1', 'met'),
  ('c1csc(CN2CCN(Cc3cccs3)C2c2cccs2)c1', 'met'),
  ('CCOc1cc2[nH]c(=S)n(CCCN3CCCC3=O)c(=O)c2cc1OCC', 'not met');

Input: Please check the record `CCOC(=O)NNC(=O)c1ccc(Cl)cc1` and state if its inhibition is at or above 7%.
Output: not met

Input: Now consider COc1ccc(-c2nc(CS(=O)CC(=O)N3CCc4ccccc4C3)c(C)o2)cc1 (stereo unspecified) .
Output: met

Input: Now consider `Cc1ccccc1-c1nc(CS(=O)(=O)CC(=O)N2CCc3ccccc3C2)c(C)o1` .
Output: met
